- System: SK-OV-3
- protocol: NCI tumour cell line growth inhibition, 48 h
Active and inactive are the calls of the source. No stated cut-off is given here; in the data, active = GI50 up to about 1.1 µM and inactive = higher.
Possible outcomes: active, inactive

{"molecule": "Cc1ccc(N2C(=O)/C(=C/c3ccc(N(CCC#N)CCC#N)cc3)N=C2COc2ccc(Cl)cc2Cl)cc1", "target_or_test_system": "SK-OV-3", "label": "inactive"}
{"molecule": "CCC1CN2CCc3c([nH]c4ccccc34)[C@@](C(=O)OC)(c3cc4c(cc3OC)N(C)C3C(O)(C(=O)OC)C(C(=O)OC)C5(CC)C=CCN6CCC43C65)C[C@@H](C2)[C@@H]1C(C)(C)C (stereo partly drawn)", "target_or_test_system": "SK-OV-3", "label": "active"}
{"molecule": "CCCCCCCc1c(Cl)nc(Cl)nc1Cl", "target_or_test_system": "SK-OV-3", "label": "inactive"}
{"molecule": "COc1ccc([C@@]23Oc4cc(OC)cc(OC)c4[C@]2(O)[C@H](O)[C@H](C(N)=O)[C@H]3c2ccccc2)cc1 [DIDESMETHYLROCAGLAMIDE]", "target_or_test_system": "SK-OV-3", "label": "active"}
{"molecule": "COC(=O)C1=C(C(=O)NNc2ccccc2)N(c2cccnc2Cl)C(c2ccccc2)=CC1c1ccccc1 (stereo not drawn)", "target_or_test_system": "SK-OV-3", "label": "inactive"}
{"molecule": "Cc1nc2ccccc2c(=O)n1/N=C(\\N=N\\c1ccccc1Cl)c1ccccc1", "target_or_test_system": "SK-OV-3", "label": "inactive"}
{"molecule": "O=C(c1ccccc1)c1nnn(Cc2ccccc2Cn2nnc(C(=O)c3ccccc3)c2C(=O)c2ccccc2)c1C(=O)c1ccccc1", "target_or_test_system": "SK-OV-3", "label": "inactive"}
{"molecule": "Cc1ccnc(Nc2[nH]c(C(=O)c3ccc(Cl)cc3)c(N)c2C(=S)Nc2ccccc2)c1", "target_or_test_system": "SK-OV-3", "label": "inactive"}
